# Test system: Phakopsora pachyrhizi (the causal agent of Asian soybean rust)
# TEST DESCRIPTION: Test A: preventive spray on soybean seedlings, Asian soybean rust, visual disease rating
# Type: in vivo
# SETTINGS: test suspension 10 ppm; soybean seedlings; 100 = 100% disease control, 0 = no control
VALUE KIND: Test A disease control rating (%)

1) N#CCNC(=O)c1csc(Cc2ccc(-c3noc(C(F)(F)F)n3)cc2)c1 [compound 288] ... 100
2) CCOC(=O)c1cnn(Cc2cc(OC)c(-c3noc(C(F)(F)F)n3)s2)c1 [compound 336] ... 0
3) O=c1c2ccccc2sn1Cc1ccc(-c2noc(C(F)(F)F)n2)cc1 [compound 155] ... 60
4) Cc1cccc2nn(Cc3ccc(-c4noc(C(F)(F)F)n4)cc3)cc12 [compound 102] ... 100
5) COC(=O)c1cccc2cn(Cc3ccc(-c4noc(C(F)(F)F)n4)cc3)nc12 [compound 50] ... 13
